Below are log10 of IC50 values recorded for Acetylcholinesterase (Homo sapiens, UniProt P22303).
test.readout: log10 of IC50 (log10 of the value in µM)

>>> observed_result("Nc1c2c(nc3ccc(F)cc13)CCCCC2")
-0.20
>>> observed_result("Nc1c2c(nc3c(Br)cc(Br)cc13)CCC2")
1.18
>>> observed_result("Cl.Nc1c2c(nc3ccc(Cl)cc13)CCC2")
0.20
>>> observed_result("Nc1c2c(nc3c(Br)cc(Br)cc13)CCCC2")
0.71
>>> observed_result("Cc1ccc2c(N)c3c(nc2c1)CCC3")
-0.46
>>> observed_result("Nc1c2c(nc3ccc(Cl)cc13)CCCC2")
0.29
>>> observed_result("Cc1cccc2nc3c(c(N)c12)CCC3")
-0.38

---

# method.notes: Ratio of drug level in brain to plasma in ICR mouse at 5 mg/kg, ip measured after 15 mins by HPLC-MS analysis
# Format: ADME, organism-based
# condition.parameters: brain and plasma, read-out: BBR
// assign yes if Kp at 0.25 h falls strictly below 60, else no (ties count as no)

>>> qualitative_label("Cl.Nc1c2c(nc3cccc(Cl)c13)CCCCC2")
"yes"
>>> qualitative_label("Cl.Nc1c2c(nc3ccc(Br)cc13)CCCC2")
"no"
>>> qualitative_label("Cl.Nc1c2c(nc3ccc(Br)cc13)CCC2")
"yes"
>>> qualitative_label("Cc1ccc2c(N)c3c(nc2c1)CCCC3.Cl")
"yes"

---

# system.under.test: Glutamate NMDA receptor; GRIN1/GRIN2A (Homo sapiens, UniProt Q05586+Q12879)
# method.notes: Inhibition of human GluN1a/GluN2A receptor expressed in HEK293 cells assessed as relative inhibition of glycine/glutamate-induced current at 100 uM measured at +40 mV holding potential by whole-cell patch clamp method
# Format: cell-based
test.readout: inhibition (%)

>>> observed_result("Nc1c2c(nc3c(Cl)cc(Cl)cc13)CCCC2")
38.2
>>> observed_result("Nc1c2c(nc3c(Br)cc(Br)cc13)CCCC2")
67.7
>>> observed_result("Nc1c2c(nc3ccc(Cl)cc13)CCCC2")
47.5
>>> observed_result("Cc1cccc2nc3c(c(N)c12)CCCCC3")
54.3
>>> observed_result("Cc1ccc2nc3c(c(N)c2c1)CCCC3")
18.5
>>> observed_result("Nc1c2c(nc3c(Cl)cc(Cl)cc13)CCCCC2")
38.5
>>> observed_result("Cl.Nc1c2c(nc3ccc(Br)cc13)CCCC2")
79.3
>>> observed_result("Cl.Nc1c2c(nc3cccc(Cl)c13)CCCCC2")
46.7
>>> observed_result("Nc1c2c(nc3c(Cl)cc(Cl)cc13)CCC2")
33.5

---

Measured inhibition values are reported for all entries that follow.
# system.under.test: Glutamate NMDA receptor; GRIN1/GRIN2A (Homo sapiens, UniProt Q05586+Q12879)
# method.notes: Inhibition of human GluN1a/GluN2A receptor expressed in HEK293 cells assessed as relative inhibition of glycine/glutamate-induced current at 100 uM measured at +40 mV holding potential by whole-cell patch clamp method
# Assay type: cell-based
test.readout: inhibition (%)

>>> observed_result("Cl.Nc1c2c(nc3ccc(Br)cc13)CCC2")
75.3
>>> observed_result("Nc1c2c(nc3ccc(F)cc13)CCCCC2")
38.5
>>> observed_result("COc1ccc2nc3c(c(N)c2c1)CCCCC3")
53.6
>>> observed_result("Cc1ccc2c(N)c3c(nc2c1)CCCC3.Cl")
51.3
>>> observed_result("Nc1c2c(nc3ccc(F)cc13)CCCC2")
41.9
>>> observed_result("Cl.Nc1c2c(nc3ccc(Cl)cc13)CCC2")
56.5
>>> observed_result("Nc1c2c(nc3c(Br)cc(Br)cc13)CCCCC2")
80.7
>>> observed_result("COc1ccc2nc3c(c(N)c2c1)CCC3")
66.1
>>> observed_result("Cc1ccc2c(N)c3c(nc2c1)CCC3")
53.6
>>> observed_result("Nc1c2c(nc3c(Br)cc(Br)cc13)CCC2")
55.7
>>> observed_result("Cc1ccc2c(N)c3c(nc2c1)CCCCC3")
50
>>> observed_result("Nc1c2c(nc3cccc(Cl)c13)CCC2")
24.5
>>> observed_result("Cc1ccc2nc3c(c(N)c2c1)CCC3")
30.8
>>> observed_result("Nc1c2c(nc3ccc(Cl)cc13)CCCCC2")
43

---

Below are IC50 values recorded for Glutamate NMDA receptor; GRIN1/GRIN2B (Homo sapiens, UniProt Q05586+Q13224).
test.readout: IC50 (µM)

>>> observed_result("Nc1c2c(nc3ccc(F)cc13)CCCCC2")
19.8
>>> observed_result("Nc1c2c(nc3c(Br)cc(Br)cc13)CCCC2")
18.7
>>> observed_result("Nc1c2c(nc3ccc(Cl)cc13)CCCC2")
9.82
>>> observed_result("Cl.Nc1c2c(nc3cccc(Cl)c13)CCCCC2")
22.1
>>> observed_result("Nc1c2c(nc3c(Br)cc(Br)cc13)CCCCC2")
26.9
>>> observed_result("Nc1c2c(nc3ccc(Br)cc13)CCCCC2")
11.8
>>> observed_result("Cc1ccc2nc3c(c(N)c2c1)CCCC3")
13.2
>>> observed_result("Cl.Nc1c2c(nc3ccc(Cl)cc13)CCC2")
8.69
>>> observed_result("Nc1c2c(nc3ccc(F)cc13)CCCC2")
21.3
>>> observed_result("Cc1ccc2nc3c(c(N)c2c1)CCCCC3")
16.6
>>> observed_result("Nc1c2c(nc3ccc(F)cc13)CCC2")
30.3
>>> observed_result("Cc1cccc2nc3c(c(N)c12)CCCCC3")
17.4
>>> observed_result("Cl.Nc1c2c(nc3ccc(Br)cc13)CCCC2")
7.8
>>> observed_result("Nc1c2c(nc3c(Cl)cc(Cl)cc13)CCCCC2")
37.9
>>> observed_result("Cc1cccc2nc3c(c(N)c12)CCCC3")
14.2
>>> observed_result("Cc1ccc2c(N)c3c(nc2c1)CCCC3.Cl")
7.83

---

Below are IC50 values recorded for Acetylcholinesterase (Homo sapiens, UniProt P22303).
test.readout: IC50 (µM)

>>> observed_result("Cc1ccc2nc3c(c(N)c2c1)CCCCC3")
22.5
>>> observed_result("Cl.Nc1c2c(nc3ccc(Br)cc13)CCCC2")
4.79
>>> observed_result("Cc1ccc2c(N)c3c(nc2c1)CCCC3.Cl")
0.072
>>> observed_result("Nc1c2c(nc3c(Cl)cc(Cl)cc13)CCCCC2")
9.04
>>> observed_result("Cc1ccc2nc3c(c(N)c2c1)CCCC3")
15.5
>>> observed_result("Cc1ccc2nc3c(c(N)c2c1)CCC3")
10
>>> observed_result("Nc1c2c(nc3cccc(Cl)c13)CCCC2")
0.0334

---

Below are pIC50 values recorded for Glutamate NMDA receptor; GRIN1/GRIN2B (Homo sapiens, UniProt Q05586+Q13224).
pIC50: −log10 of the molar value.
test.readout: pIC50

>>> observed_result("COc1ccc2nc3c(c(N)c2c1)CCCC3.Cl")
4.29
>>> observed_result("Cl.Nc1c2c(nc3ccc(Br)cc13)CCCC2")
4.89
>>> observed_result("Cl.Nc1c2c(nc3ccc(Cl)cc13)CCC2")
4.56
>>> observed_result("Cl.Nc1c2c(nc3cccc(Cl)c13)CCCCC2")
3.83
>>> observed_result("Cc1ccc2c(N)c3c(nc2c1)CCCC3.Cl")
4.38
>>> observed_result("Cl.Nc1c2c(nc3ccc(Br)cc13)CCC2")
4.64
>>> observed_result("COc1ccc2nc3c(c(N)c2c1)CCC3")
4.05

---

Below are log10 IC50 values recorded for UniProtKB P22303.
test.readout: log10 IC50 (log10 of the value in µM)

>>> observed_result("Nc1c2c(nc3ccc(F)cc13)CCCC2")
-0.01
>>> observed_result("Cc1cccc2nc3c(c(N)c12)CCCC3")
-0.90
>>> observed_result("COc1ccc2nc3c(c(N)c2c1)CCC3")
0.91
>>> observed_result("Nc1c2c(nc3c(Br)cc(Br)cc13)CCCCC2")
1.18
>>> observed_result("Cl.Nc1c2c(nc3ccc(Br)cc13)CCC2")
0.76
>>> observed_result("Cl.Nc1c2c(nc3cccc(Cl)c13)CCCCC2")
2.35
>>> observed_result("Cc1ccc2c(N)c3c(nc2c1)CCCCC3")
-0.98

---

Below are pIC50 values recorded for Glutamate NMDA receptor; GRIN1/GRIN2A (Homo sapiens, UniProt Q05586+Q12879).
pIC50: −log10 of the molar value.
test.readout: pIC50

>>> observed_result("Nc1c2c(nc3cccc(Cl)c13)CCC2")
4.57
>>> observed_result("Cc1ccc2nc3c(c(N)c2c1)CCC3")
4.69
>>> observed_result("Cc1ccc2c(N)c3c(nc2c1)CCCC3.Cl")
4.77
>>> observed_result("Cc1cccc2nc3c(c(N)c12)CCCC3")
4.73
>>> observed_result("Nc1c2c(nc3ccc(Cl)cc13)CCCCC2")
4.69
>>> observed_result("Cc1ccc2c(N)c3c(nc2c1)CCCCC3")
4.82
>>> observed_result("Nc1c2c(nc3ccc(Br)cc13)CCCCC2")
4.86
>>> observed_result("COc1ccc2nc3c(c(N)c2c1)CCC3")
5.38
>>> observed_result("Nc1c2c(nc3c(Br)cc(Br)cc13)CCCC2")
4.81
>>> observed_result("Nc1c2c(nc3c(Cl)cc(Cl)cc13)CCCCC2")
4.70
>>> observed_result("Cl.Nc1c2c(nc3cccc(Cl)c13)CCCCC2")
5.14
>>> observed_result("Cc1cccc2nc3c(c(N)c12)CCC3")
4.67
>>> observed_result("Nc1c2c(nc3ccc(F)cc13)CCC2")
4.55
>>> observed_result("Nc1c2c(nc3c(Br)cc(Br)cc13)CCC2")
4.99
